- System: CCRIS mutagenicity, Ames/micronucleus/aberration tests
- Assay Notes: CCRIS mutagenicity studies
- Test Parameters: Test System: AMES SALMONELLA TYPHIMURIUM; Strain/Indicator: TA98; Metabolic Activation: RAT, LIVER, S-9, AROCLOR 1254 (10%); Method: PREINCUBATION
Active and inactive are the calls of the source. No rule for the calls is given here.
Assign a class; possible classes are class 1 (active), class 0 (inactive)

As a guide, the following entries are already answered.
> print(dat)
                                   compound    class
1  CCC[CH2][Sn]([CH2]CCC)([O]C(C)=O)[O]C(C)=O  class 0
2                                    CN(C)C  class 0
3                       C=CCOC(=O)c1ccccc1N  class 0
4                               Cc1ccccc1Br  class 0
5      CC(CC(=O)O)C(=O)O (stereo not given)  class 0
6                       O=Cc1ccc(Cl)c(Cl)c1  class 0

Shifting focus to the compound that follows.
Task item: Entry `c1ccc(Nc2ccc3ccccc3c2)cc1` : call = ?
Reply: class 0
